# System: gum arabic
# Run description: VHH binding to gum arabic in ELISA
# Parameters: species or system acacia tree
# Experimental setup: [VHH] 3 μg/ml (200 nM); gum arabic − (well without gum arabic)
The following molecules are listed with their measured absorbance at 405 nm values.
Reply briefly: the number, and no unit.

# count of solved cases: 3
VHH 7D2: VHH sequence; SEQ ID NO:28 by order of the list (protein, listed as Lama glama, 7D2) VHH: QVQLQESGGGLVQPGRSLKVACAAAGFSLRYYGIGWFRQAPGKEREAVSCTSANDGSTYYRDSVRGRFTISRDDGKNTVYLQMNRLKPEDTAVYYCATTDCDATSWGTWINYYGQGTQVTVSS :: 0.074
VHH7C2: VHH sequence; SEQ ID NO:27 by order of the list (protein, listed as Lama glama, 7C2) VHH: QVQLQESGGGLVQPGGSLRLSCAAFGFALANYGIGWFRQAPGKDRERVSCDSVDDGSTHYSNSVQGRFTIIRDNAKNTVFLQMNSLKAEDTAVYYCATTDCDATTWGTWINYRGQGTQVTVSS :: 0.077
VHH7A2: VHH sequence; SEQ ID NO:26 by order of the list (protein, listed as Lama glama, 7A2) VHH: QVQLQESGGGSVHPGGSLTLSCLASGFSLSNYGMGWFRQAPGKEREAVSCTSVPNGHIYYAESVKGRFTIVRDNAGNSVYLQMNSLKPEDAANYFCATTDCEAAHWGTWVNYYGQGTQVTVSS :: 0.075

Give me measured absorbance at 405 nm, please, for this molecule: VHH 5G5: VHH sequence; SEQ ID NO:24 by order of the list (protein, listed as Lama glama, 5G5) VHH: QVQLQESGGGLVQPGGSLRLSCAASGFSLRYFGIGWFRQAAGKEREGISCSNVRDGNTYYADSVKGRFTISRDNVRNMLYLQMNNLKPDDTAVYSCATTDCEATTWGTYRGYFGQGTQVTVSS
0.077

Fill in absorbance at 405 nm for record VHH 3E6: VHH binding gum arabic, potato lectin and leaf surface; SEQ ID NO:7 by order of the list (protein, listed as Lama glama, 3E6) VHH: QVQLQESGGGLVQPGGTLSLSCAASGFNVRWYGMGWFRQAPGKEREGVACISALQETTAYADSVKGRFTLSRDNPKNTLSLQMNNLQPEDTGVYYCATTDCDDSSRMTYTSYLGQGTQVTVSS
0.090

Given VHH5E5: VHH sequence; SEQ ID NO:21 by order of the list (protein, listed as Lama glama, 5E5) VHH: QVQLQESGGGLVQPGGSLTLSCTASGFAMRRFGIGWFRQVVGKEREGVSCSNVHDGSTYYANYVKGRFTIVRDDTKNMLYLHMNSLRAEDTGVYSCATTDCEATAWGTYRGYFGQGTQVTVSS , respond with its absorbance at 405 nm.
0.073

Values from patent US8598081B2
